Source listed as ChEMBL document CHEMBL3098045.

- Test summary: Half life in rat at 0.5 mg/kg, iv and 1 mg/kg, po
- Assay type: ADME, organism-based
- Experimental parameters: in vivo
Metric name: half-life (h)
Just the number please, in h, no unit attached.

Return reported half-life; argument: CCCN(CCc1cccs1)[C@H]1CCc2c(O)cccc2C1 [ROTIGOTINE]
2

Then what about the molecule CCN1CCO[C@@H]2Cc3c(O)cccc3C[C@H]21.Cl ?
0.3

And the next one, CN1CCO[C@@H]2Cc3c(O)cccc3C[C@H]21.Cl ?
1

###

- Tested system: UniProt P21728
- Sequence (P21728 whole entry): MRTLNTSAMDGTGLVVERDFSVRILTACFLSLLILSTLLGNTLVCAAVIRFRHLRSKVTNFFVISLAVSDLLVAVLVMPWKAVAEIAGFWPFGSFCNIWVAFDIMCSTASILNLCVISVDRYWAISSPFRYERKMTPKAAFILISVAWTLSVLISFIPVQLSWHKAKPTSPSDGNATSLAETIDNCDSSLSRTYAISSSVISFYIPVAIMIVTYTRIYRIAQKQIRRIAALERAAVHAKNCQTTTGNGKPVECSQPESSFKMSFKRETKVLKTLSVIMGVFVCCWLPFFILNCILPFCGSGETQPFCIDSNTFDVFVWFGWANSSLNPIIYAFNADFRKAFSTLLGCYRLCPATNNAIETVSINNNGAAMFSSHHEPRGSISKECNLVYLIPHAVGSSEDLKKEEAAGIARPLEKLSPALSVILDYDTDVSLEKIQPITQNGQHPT
- Test summary: Agonist activity at human recombinant dopamine D1 receptor expressed in CHO cells assessed as cAMP production after 20 mins
For each record, write down the corresponding EC50.

Field request: EC50 | item: Oc1cccc2c1C[C@@H]1OCCN(CC3CC3)[C@H]1C2
> 10 µM

Let us now turn to Br.CN1CCC[C@@H]2Cc3c(O)cccc3C[C@H]21
> 10 µM

# iterate: CN1CCO[C@@H]2Cc3c(O)cccc3C[C@H]21.Cl
> 10 µM
